protocol_details: amyloid nucleation score (Sup35N fusion, yeast selection) (log enrichment); library NNK2; higher = more nucleation; inactive = no reads after selection;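 further: zero at mode of non-aggregating sequences after 7 days selection at 30°C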
# amyloid nucleation score per entry
Respond using a number only.

Here are 5 substances together with their reported answers.
substance	recorded_number
RFERISQAKIARTLGLWEML	0.878
NLSFLEPLYWNEVSYFVRCC	6.37
IFSEGSTSSGSFGTKL	-1.6
YRDECWLSYS	-0.347
SFSILLEDTSS	-0.162

Query: Retrieve amyloid nucleation score measured for MWRFRPLRSDTLRYDGSMGC and print it.
Reply: -0.021

Query: Retrieve amyloid nucleation score measured for NPALNRLMDGVNRFPLKCYV and print it.
Reply: -0.338

Query: Retrieve amyloid nucleation score measured for YYNIQLSFVDMVLMYYDESM and print it.
Reply: 4.44

Query: Retrieve amyloid nucleation score measured for DGCLARGYNKGVHDGVVEYL and print it.
Reply: -0.088

Query: Retrieve amyloid nucleation score measured for TYVVKLLIGWDLDAIFTVLS and print it.
Reply: 0.499

Query: Retrieve amyloid nucleation score measured for SFLWCPGG and print it.
Reply: 0.221

Query: Retrieve amyloid nucleation score measured for SAADQPKWRSTTSCVPSDVS and print it.
Reply: 3.74

Query: Retrieve amyloid nucleation score measured for FMVQSVFTKLGPSQAFRVHP and print it.
Reply: -0.14

Query: Retrieve amyloid nucleation score measured for IGTGLDADTSM and print it.
Reply: 1.44

Query: Retrieve amyloid nucleation score measured for GNVVMN and print it.
Reply: 0.863

====

protocol_details: amyloid nucleation score (Sup35N fusion, yeast selection) (log enrichment); library NNK1; higher = more nucleation; inactive = no reads after selection
reported_metric: amyloid nucleation score
Respond using a number only.

Here are 3 substances together with their reported answers.
substance	recorded_number
PFGGDFTF	0.187
VSFRMVLNYLQVGYSWGHWR	0.395
WHPAKMILEYAEVRSNL	-0.032

Query: Retrieve amyloid nucleation score measured for NGSRYLANYSQS and print it.
Reply: 0.23

Query: Retrieve amyloid nucleation score measured for ALTIDRCRAESYLRRLTFLL and print it.
Reply: -0.653

Query: Retrieve amyloid nucleation score measured for HVTMKMIASSTMLDQHSWAR and print it.
Reply: -0.065

Query: Retrieve amyloid nucleation score measured for DYSVYRSERMCTLRAS and print it.
Reply: -0.279

Query: Retrieve amyloid nucleation score measured for VSKLICVFTGSYRNLEGYRI and print it.
Reply: 0.041

Query: Retrieve amyloid nucleation score measured for GKYFLSICHDT and print it.
Reply: 0.033

Query: Retrieve amyloid nucleation score measured for VDLNWRHVDCCYFRFTTQDH and print it.
Reply: 6.04

Query: Retrieve amyloid nucleation score measured for NVYWNRWAMTFWLSGDEMWF and print it.
Reply: 1.27

Query: Retrieve amyloid nucleation score measured for MSSPMRRDAKL and print it.
Reply: 2.67

Query: Retrieve amyloid nucleation score measured for ILHLLRFNDIAFVKRLSAVL and print it.
Reply: -0.067

Query: Retrieve amyloid nucleation score measured for YFYIPFNEMNRWTYCCIRWW and print it.
Reply: -0.04

Query: Retrieve amyloid nucleation score measured for VLFKGHLIEV and print it.
Reply: 0.138

====

protocol_details: amyloid nucleation score (Sup35N fusion, yeast selection) (log enrichment); library NNK1; higher = more nucleation; inactive = no reads after selection
reported_metric: amyloid nucleation score
Respond using a number only.

substance	reported_metric	recorded_number
LYMVWCACSFWDYITVFIFM	amyloid nucleation score	0.041
WVTHRL	amyloid nucleation score	-0.715
IETVLIVAY	amyloid nucleation score	0.355
CGWRSLVVFSFDLDAS	amyloid nucleation score	0.876
SHYSSIVYGAMEDSGL	amyloid nucleation score	-1.6
YGRVTDYCKCCVILRLSYWV	amyloid nucleation score	-0.993

Now consider the entry below.
Query: Retrieve amyloid nucleation score measured for HIMYSLKASSHWSPIVFSHH and print it.
Reply: 0.669

====

protocol_details: amyloid nucleation score (Sup35N fusion, yeast selection) (log enrichment); library NNK1; higher = more nucleation; inactive = no reads after selection
reported_metric: amyloid nucleation score

Here are 4 substances together with their reported answers.
substance	result
IIMVYSRSLLMLKLSLVVPC	inactive
GFRPEMHGV	inactive
IVSNDKWHMWLNRL	-0.022
YVWLMH	3.7

Query: Retrieve amyloid nucleation score measured for NCNKSFNLLECGSFGTVGPM and print it.
Reply: -0.324

====

protocol_details: amyloid nucleation score (Sup35N fusion, yeast selection) (log enrichment); library NNK3; higher = more nucleation; inactive = no reads after selection
reported_metric: amyloid nucleation score

substance	result
QQEMCTLFFRN	inactive
QLHVMNVYFFWKDSSALMRA	inactive
FVWMLRWMGRDD	0.816
VVEIMDLS	inactive
KIGQSFSV	inactive
HYILLG	inactive

Query: Retrieve amyloid nucleation score measured for VHYSWSTFFD and print it.
Reply: 0.593

Query: Retrieve amyloid nucleation score measured for QHTAFLRKVSPSLRG and print it.
Reply: inactive

Query: Retrieve amyloid nucleation score measured for VCITRMQVRLPTYLRVQSKA and print it.
Reply: inactive

Query: Retrieve amyloid nucleation score measured for DLLDHGFEASSKDLEFRDHS and print it.
Reply: inactive

Query: Retrieve amyloid nucleation score measured for QIHNRTMPCWRSKATVLGKT and print it.
Reply: inactive

Query: Retrieve amyloid nucleation score measured for VYQSTSKF and print it.
Reply: inactive

Query: Retrieve amyloid nucleation score measured for NGDMKARTFHTRDFKFGVPR and print it.
Reply: inactive

====

protocol_details: amyloid nucleation score (Sup35N fusion, yeast selection) (log enrichment); library NNK2; higher = more nucleation; inactive = no reads after selection
reported_metric: amyloid nucleation score

Here are 5 substances together with their reported answers.
substance	amyloid nucleation score
TISYKELLFANRFRELQPAD	0.299
FAFYRSFCWRVTWFSWVGGS	inactive
RQFLSPNYATECGFQLRVGI	inactive
FLIKAKGFYSSLLATGGIEK	inactive
SEYVLLT	inactive

Query: Retrieve amyloid nucleation score measured for ITQRHSVNLNMMSLDLYTSS and print it.
Reply: 0.295

Query: Retrieve amyloid nucleation score measured for WVSSQAEWGVLCGICRSLES and print it.
Reply: inactive

====

protocol_details: amyloid nucleation score (Sup35N fusion, yeast selection) (log enrichment); library NNK2; higher = more nucleation; inactive = no reads after selection

item_sequence	amyloid nucleation score
SVDSLWQYQSFRALFPCFMS	inactive
GPSLDLDNVDYIGDSTTYQL	inactive
FSWFDWKGYVLSWIRSYSSE	inactive
GVRAGACLGNGSVYSSGGRF	inactive

====

protocol_details: amyloid nucleation score (Sup35N fusion, yeast selection) (log enrichment); library NNK2; higher = more nucleation; inactive = no reads after selection
# amyloid nucleation score per entry
Respond using a number only.

substance	amyloid nucleation score
ASVCHTLVGILYDDEGARTR	0.85

Now consider the entry below.
Query: Retrieve amyloid nucleation score measured for SLWVASGQSFSDSRQRNVAG and print it.
Reply: 2.27

====

protocol_details: amyloid nucleation score (Sup35N fusion, yeast selection) (log enrichment); library NNK3; higher = more nucleation; inactive = no reads after selection
reported_metric: amyloid nucleation score

Here are 5 substances together with their reported answers.
substance	amyloid nucleation score
IYGTANSKFSCIIYR	2.09
SCWRNLYSFLRKGSYSRCM	inactive
FSLSCPLSDPNVACTY	inactive
VCGAVSKPLWIRCTVDPRGR	inactive
SRVSPMFKIRIWNWIPAWAT	inactive

Query: Retrieve amyloid nucleation score measured for SARISNAVNDSFTGKTMYNK and print it.
Reply: inactive

Query: Retrieve amyloid nucleation score measured for VVILHCKTYAMASRWYGYRG and print it.
Reply: -0.003

Query: Retrieve amyloid nucleation score measured for KVGSKVLEIFINTHYNWYCR and print it.
Reply: 0.145

Query: Retrieve amyloid nucleation score measured for AYSRIHSWRMVCKRSNNGVG and print it.
Reply: 1.41

Query: Retrieve amyloid nucleation score measured for VRRHAF and print it.
Reply: inactive

====

protocol_details: amyloid nucleation score (Sup35N fusion, yeast selection) (log enrichment); library NNK3; higher = more nucleation; inactive = no reads after selection
reported_metric: amyloid nucleation score

Here are 5 substances together with their reported answers.
substance	result
LRTLSGNICANL	inactive
RLASGLNPFYVRG	inactive
FNERDWCNSSGSSHVLWSSM	inactive
EEMVSDRVRMLVTINHR	0.661
NCFVSICLFFASTFWLGLHN	inactive

Query: Retrieve amyloid nucleation score measured for DTWRMFWPLVVLNCADGAPG and print it.
Reply: inactive

Query: Retrieve amyloid nucleation score measured for TDFPYK and print it.
Reply: -0.12

Query: Retrieve amyloid nucleation score measured for MSSYKCSECLRGHRGTPLPV and print it.
Reply: inactive

Query: Retrieve amyloid nucleation score measured for ERFRGMDRHVGVVWYDFV and print it.
Reply: inactive

Query: Retrieve amyloid nucleation score measured for LYNRKHFTSM and print it.
Reply: -0.638

Query: Retrieve amyloid nucleation score measured for GQSLLFRISLISCV and print it.
Reply: 0.199

Query: Retrieve amyloid nucleation score measured for PHCVWDFLVRYGMDENRVKY and print it.
Reply: inactive
